assay-text: chemical genetic growth profiling, strain panel (AID 1159580);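 further: tested at 20 µM; growth read once vehicle control cultures reached saturation at 30 °C; 1 = growth at the plate median or of vehicle wells; lower values mean less growth of the strain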
measurement-conditions: S. cerevisiae deletion strains, growth OD, locus YDR159W, strain sac3, hits give low values
Out of some 5,500 compounds screened, about 2,000 (36%) were called active. Inconclusive results (about 18%) are left out. This is one part of the list.
Provide the reported normalized growth of each item.
One number for each entry.

Solved entries:
CC(=O)[C@@]1(O)CCC2C3C[C@H](C)C4=CC(=O)C=CC4(C)[C@@]3(F)[C@@H](O)C[C@@]21C (stereo partly drawn) | 0.929
C[C@@H]([C@H](O)c1ccccc1)N(C)C | 1.03
NC(=NCCC[C@H](N)C(=O)O)N[N+](=O)[O-] | 0.991
COc1c2ccoc2cc2oc(=O)ccc12 | 1.04

Dear colleague, could you send me normalized growth for each of the items below? Thanks.
1. COc1cc(OC)c2ccc(=O)oc2c1
2. COc1ccc(Cl)cc1C(=O)NCCc1ccc(S(=O)(=O)NC(=O)NC2CCCCC2)cc1
3. CCN(Cc1ccncc1)C(=O)C(CO)c1ccccc1 (stereo not drawn)

0.971
1.01
1.03

Dear colleague, could you send me normalized growth for each of the items below? Thanks.
1. CC(=O)OC(C)C[N+](C)(C)C (stereo not drawn)
2. O=C1[O][Bi][O]c2ccccc21

1. 1
2. 0.954

Just for reference, PubChem BioAssay AID1159580 is where these values come from.
